target: UniProt:P34972; test: Displacement of [3H]CP-55940 from human recombinant CB2 receptor expressed in HEK293 cells after 90 mins
Sequence (P34972 whole entry): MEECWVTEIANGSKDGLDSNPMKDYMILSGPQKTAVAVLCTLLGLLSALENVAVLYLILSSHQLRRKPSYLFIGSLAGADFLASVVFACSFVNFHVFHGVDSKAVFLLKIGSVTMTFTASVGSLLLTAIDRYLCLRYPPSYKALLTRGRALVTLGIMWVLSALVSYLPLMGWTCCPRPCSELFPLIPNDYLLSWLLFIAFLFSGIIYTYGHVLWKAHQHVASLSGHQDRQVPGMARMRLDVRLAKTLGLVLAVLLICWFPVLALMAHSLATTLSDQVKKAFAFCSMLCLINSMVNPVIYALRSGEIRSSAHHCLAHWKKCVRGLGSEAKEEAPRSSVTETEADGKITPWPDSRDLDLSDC
pEC50: −log10 of the molar value.
Entries and their pEC50
measuredQuantity: pEC50

smi	experimentalTarget	measuredQuantity	comparator	measuredValue
CCN(CC)Cc1cccc(C(=O)c2c(-c3ccc(OCCCCCCCN(C)Cc4ccccc4)cc3)oc3ccccc23)c1	UniProt:P34972	pEC50	<	5.00
CCN(CC)CCOc1cccc(C(=O)c2c(-c3ccc(OCCCCCCCN(C)Cc4ccccc4)cc3)oc3ccccc23)c1	UniProt:P34972	pEC50	=	5.57
CN(CCCCCCCOc1ccc(-c2cc3ccccc3o2)cc1)Cc1ccccc1	UniProt:P34972	pEC50	<	5.00
CN(CCCCCCCOc1ccc(-c2oc3ccccc3c2C(=O)c2ccc(OCCN3CCOCC3)cc2)cc1)Cc1ccccc1	UniProt:P34972	pEC50	=	5.64

Data origin, for the record: ChEMBL document CHEMBL2157903
